Values from paper PMC6607443

target: LC8 (UniProt P63167); test: ITC of synthetic peptides binding to LC8; details: ITC, 25°C, pH 7.5; strong = Kd fit, weak = heat but not fit (>25 μM)
Sequence (P63167 whole entry): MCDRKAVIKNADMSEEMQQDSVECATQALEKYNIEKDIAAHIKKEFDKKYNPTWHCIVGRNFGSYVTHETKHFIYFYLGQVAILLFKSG
experimental endpoint: binding to LC8 via ITC (in words)

SSTEVQVE [OTOF, peptide from otoferlin, UniProt Q9HC10, predicted by LC8Pred] : bound to LC8
RTSETNTP [NIN, peptide from ninein, UniProt Q8N4C6, predicted by LC8Pred] : bound to LC8

====

target: LC8 (UniProt P63167); assay: ITC of synthetic peptides binding to LC8; settings: pH 7.5
Where no end group is shown, it is not given here.
experimental endpoint: pKd
pKd is a log-scale quantity: -log10 of the concentration expressed in molar.

Q) Requested read-out pKd, target or system LC8 (UniProt P63167), entry PRATAEFSTQTPSP [BSN^II]
A) 5.42
